Data credit: patent US20240132531A1

# MEASURED TARGET: galectin-3 (Homo sapiens)
# Sequence (P17931 whole entry): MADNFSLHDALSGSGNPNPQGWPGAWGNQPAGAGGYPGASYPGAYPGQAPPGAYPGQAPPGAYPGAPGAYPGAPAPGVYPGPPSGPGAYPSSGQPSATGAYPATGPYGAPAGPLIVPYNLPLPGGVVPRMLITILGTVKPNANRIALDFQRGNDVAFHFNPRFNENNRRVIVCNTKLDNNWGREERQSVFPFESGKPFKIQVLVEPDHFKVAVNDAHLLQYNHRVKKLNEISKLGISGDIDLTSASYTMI
# ASSAY PROCEDURE: Fluorescence anisotropy assay, affinity for galectin-3
# TEST CONDITIONS: compound as inhibitor of the interaction between galectin and a fluorescein tagged saccharide probe; read-out: Gal-3 Kd
What Kd was measured for each of the following?
Numbers only, in nM.

[[record]]
compound = "COC1C(n2cc(-c3ncc(Cl)s3)nn2)[C@@H](O)C(CO)O[C@H]1c1ccnn1-c1cc(Cl)ccc1C(F)(F)F (stereo partly drawn) [Example 12]"
observed_property = "Kd"
experimental_value = 390

[[record]]
compound = "COC1C(n2cc(-c3nc(C)cs3)nn2)[C@@H](O)C(CO)O[C@H]1c1ccnn1-c1cc(Cl)ccc1C(F)(F)F (stereo partly drawn) [Example 4]"
observed_property = "Kd"
experimental_value = 3260


Lab request: please report Kd under test system galectin-3 (Homo sapiens) for C=C(C)c1cc([C@@H]2OC(CO)[C@H](O)C(n3cc(-c4nc(Cl)cs4)nn3)C2OC)n(-c2cc(Cl)ccc2C(F)(F)F)n1 (stereo partly drawn) [Example 27]
1200
